# residual activity 1A6 listing for each entry below
- TARGET_OR_SYSTEM: UGT1A6 (Homo sapiens)
- Sequence (P19224 27-532): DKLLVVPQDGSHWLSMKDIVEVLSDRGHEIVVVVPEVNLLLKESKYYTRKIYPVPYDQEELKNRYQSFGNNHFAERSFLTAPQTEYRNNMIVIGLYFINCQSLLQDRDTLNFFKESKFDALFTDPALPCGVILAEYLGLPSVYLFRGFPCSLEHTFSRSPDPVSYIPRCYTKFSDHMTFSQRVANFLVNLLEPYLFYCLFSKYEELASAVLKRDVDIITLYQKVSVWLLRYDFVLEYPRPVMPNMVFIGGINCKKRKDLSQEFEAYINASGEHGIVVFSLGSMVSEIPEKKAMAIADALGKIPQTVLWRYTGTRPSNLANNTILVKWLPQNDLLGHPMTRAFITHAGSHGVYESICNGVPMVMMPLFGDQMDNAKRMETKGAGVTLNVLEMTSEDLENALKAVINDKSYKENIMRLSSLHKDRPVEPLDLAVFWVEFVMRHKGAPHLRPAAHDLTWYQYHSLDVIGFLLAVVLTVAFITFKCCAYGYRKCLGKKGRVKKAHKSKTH
- CONDITION_INFO: 50 μM LPC components; recombinant human UGT; mean of triplicate
Quick note: give the figure in %, leave out the unit.

Worked set:
CCCCCCCCCCCCCC(=O)OC[C@@H](O)COP(=O)([O-])OCC[N+](C)(C)C; 33.3
CCCCCC(=O)OC[C@@H](O)COP(=O)([O-])OCC[N+](C)(C)C; 72.7
CCCCCCC(=O)OCC(O)COP(=O)([O-])OCC[N+](C)(C)C (stereo not drawn); 71.0
CCCCCCCCCCCCC(=O)OC[C@@H](O)COP(=O)([O-])OCC[N+](C)(C)C; 83.8
CCCCCCCCC(=O)OC[C@@H](O)COP(=O)([O-])OCC[N+](C)(C)C; 67.2
CCCCCCCCCCCCCCC(=O)OC[C@@H](O)COP(=O)([O-])OCC[N+](C)(C)C; 2.9

In the following, a different compound is considered.
Assign residual activity 1A6 to the following record: CCCCCCCC(=O)OCC(O)COP(=O)([O-])OCC[N+](C)(C)C (stereo not drawn) 74.2

----------
# residual activity 1A3 listing for each entry below
- TARGET_OR_SYSTEM: UGT1A3 (Homo sapiens, UniProt P35503)
- Sequence (P35503 29-534): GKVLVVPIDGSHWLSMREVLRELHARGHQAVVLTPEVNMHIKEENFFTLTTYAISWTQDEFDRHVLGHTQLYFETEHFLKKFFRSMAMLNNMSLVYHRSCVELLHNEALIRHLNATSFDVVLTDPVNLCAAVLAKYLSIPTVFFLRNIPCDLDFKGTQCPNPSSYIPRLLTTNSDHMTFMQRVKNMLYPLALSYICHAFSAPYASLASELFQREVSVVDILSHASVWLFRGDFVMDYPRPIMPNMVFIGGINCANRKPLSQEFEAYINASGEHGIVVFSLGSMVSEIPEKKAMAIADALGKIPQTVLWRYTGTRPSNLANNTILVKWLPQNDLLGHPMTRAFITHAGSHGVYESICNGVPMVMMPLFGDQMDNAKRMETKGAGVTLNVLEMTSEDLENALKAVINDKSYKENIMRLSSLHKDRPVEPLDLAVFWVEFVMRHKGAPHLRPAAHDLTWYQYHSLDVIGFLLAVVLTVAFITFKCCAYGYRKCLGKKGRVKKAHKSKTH
- TEST_NAME: UGT1A3 supersomes-catalyzed 4-MU glucuronidation inhibition
- CONDITION_INFO: 50 μM LPC components; recombinant human UGT; mean of triplicate
Quick note: give the figure in %, leave out the unit.

Worked set:
CCCCCCCCC(=O)OC[C@@H](O)COP(=O)([O-])OCC[N+](C)(C)C; 79.6
CCCCCCCCCCCCCCCCCC(=O)OC[C@@H](O)COP(=O)([O-])OCC[N+](C)(C)C; 72.4

Assign residual activity 1A3 to the following record: CCCCCC(=O)OC[C@@H](O)COP(=O)([O-])OCC[N+](C)(C)C 84.4

Assign residual activity 1A3 to the following record: CCCCCCCCCCC(=O)OC[C@@H](O)COP(=O)([O-])OCC[N+](C)(C)C 75.9

----------
- TARGET_OR_SYSTEM: UniProtKB Q9HAW7
- TEST_NAME: UGT1A7 supersomes-catalyzed 4-MU glucuronidation inhibition
- CONDITION_INFO: 50 μM PC components; recombinant human UGT; mean of triplicate
OBSERVED_PROPERTY: residual activity 1A7
Number first, unit second: that is the form wanted.

Worked set:
CCCCCCCCCCCCCCCC(=O)OC[C@H](COP(=O)([O-])OCC[N+](C)(C)C)OC(=O)CCCCCCCCCCCCCCC; 155.2%
CCCCCCCCCCCCCCCCCCCCC(=O)OC[C@H](COP(=O)([O-])OCC[N+](C)(C)C)OC(=O)CCCCCCCCCCCCCCCCCCCC; 122.0%

Assign residual activity 1A7 to the following record: CCCCCCCCCCCCCCCCCCCCCCC(=O)OC[C@H](COP(=O)([O-])OCC[N+](C)(C)C)OC(=O)CCCCCCCCCCCCCCCCCCCCCC 118.8%

----------
# residual activity 1A3 listing for each entry below
- TARGET_OR_SYSTEM: UGT1A3 (Homo sapiens)
- Sequence (P35503 29-534): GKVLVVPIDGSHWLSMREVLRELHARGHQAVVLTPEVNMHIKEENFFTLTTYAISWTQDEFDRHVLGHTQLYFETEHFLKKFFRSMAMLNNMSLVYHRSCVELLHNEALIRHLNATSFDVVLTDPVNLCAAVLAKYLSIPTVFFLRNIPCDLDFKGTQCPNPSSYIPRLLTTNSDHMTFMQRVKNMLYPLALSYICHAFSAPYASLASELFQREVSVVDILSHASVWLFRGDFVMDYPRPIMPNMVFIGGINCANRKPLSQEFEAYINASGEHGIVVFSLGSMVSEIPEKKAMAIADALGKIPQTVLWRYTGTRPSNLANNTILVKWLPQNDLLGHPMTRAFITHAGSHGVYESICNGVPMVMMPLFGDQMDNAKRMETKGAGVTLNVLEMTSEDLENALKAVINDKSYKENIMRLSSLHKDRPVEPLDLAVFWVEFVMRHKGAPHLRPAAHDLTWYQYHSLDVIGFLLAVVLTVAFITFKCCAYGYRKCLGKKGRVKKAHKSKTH
- TEST_NAME: UGT1A3 supersomes-catalyzed 4-MU glucuronidation inhibition
- CONDITION_INFO: 50 μM PC components; recombinant human UGT; mean of triplicate
Quick note: give the figure in %, leave out the unit.

Worked set:
CCCCCCCCC(=O)OC[C@H](COP(=O)([O-])OCC[N+](C)(C)C)OC(=O)CCCCCCCC; 117.7
CCCCCCCCCCCCCCCC(=O)OC[C@H](COP(=O)([O-])OCC[N+](C)(C)C)OC(=O)CCCCCCCCCCCCCCC; 92.6
CCCCCCCC(=O)OC[C@H](COP(=O)([O-])OCC[N+](C)(C)C)OC(=O)CCCCCCC; 119.1
CCCCCCC(=O)OC[C@H](COP(=O)([O-])OCC[N+](C)(C)C)OC(=O)CCCCCC; 109.9
CCCCCCCCCCC(=O)OC[C@H](COP(=O)([O-])OCC[N+](C)(C)C)OC(=O)CCCCCCCCCC; 110.7
CCCCCCCCCCCCCCCCCCCCC(=O)OC[C@H](COP(=O)([O-])OCC[N+](C)(C)C)OC(=O)CCCCCCCCCCCCCCCCCCCC; 88.2

In the following, a different compound is considered.
Assign residual activity 1A3 to the following record: CCCCCCCCCCCCCCCCCCCCCC(=O)OC[C@H](COP(=O)([O-])OCC[N+](C)(C)C)OC(=O)CCCCCCCCCCCCCCCCCCCCC 92.1

----------
# residual activity 1A7 listing for each entry below
- TARGET_OR_SYSTEM: UGT1A7 (Homo sapiens)
- Sequence (Q9HAW7 26-530): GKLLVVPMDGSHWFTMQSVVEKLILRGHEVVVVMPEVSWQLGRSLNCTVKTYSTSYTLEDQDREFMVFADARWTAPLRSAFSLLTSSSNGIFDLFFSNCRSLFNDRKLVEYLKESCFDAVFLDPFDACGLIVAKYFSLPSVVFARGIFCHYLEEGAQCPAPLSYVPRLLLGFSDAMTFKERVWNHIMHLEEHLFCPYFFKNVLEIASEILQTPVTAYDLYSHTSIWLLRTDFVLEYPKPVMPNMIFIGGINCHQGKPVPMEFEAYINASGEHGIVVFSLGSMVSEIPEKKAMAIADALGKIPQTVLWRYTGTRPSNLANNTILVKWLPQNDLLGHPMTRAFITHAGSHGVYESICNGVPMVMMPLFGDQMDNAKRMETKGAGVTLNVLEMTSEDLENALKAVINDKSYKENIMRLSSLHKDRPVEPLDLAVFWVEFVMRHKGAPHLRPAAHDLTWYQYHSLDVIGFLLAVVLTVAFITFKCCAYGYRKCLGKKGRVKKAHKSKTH
- TEST_NAME: UGT1A7 supersomes-catalyzed 4-MU glucuronidation inhibition
- CONDITION_INFO: 50 μM PC components; recombinant human UGT; mean of triplicate
Quick note: give the figure in %, leave out the unit.

Worked set:
CCCCCCCCCCCCCCCCCCC(=O)OC[C@H](COP(=O)([O-])OCC[N+](C)(C)C)OC(=O)CCCCCCCCCCCCCCCCCC; 135.5
CCCCCCCCCCCCCCCCCC(=O)OC[C@H](COP(=O)([O-])OCC[N+](C)(C)C)OC(=O)CCCCCCCCCCCCCCCCC; 139.9
CCCCCCCCCCCC(=O)OC[C@H](COP(=O)([O-])OCC[N+](C)(C)C)OC(=O)CCCCCCCCCCC; 171.4

In the following, a different molecule is considered.
Assign residual activity 1A7 to the following record: CCCCCC(=O)OC[C@H](COP(=O)([O-])OCC[N+](C)(C)C)OC(=O)CCCCC 166.0

----------
- TARGET_OR_SYSTEM: UGT1A4 (Homo sapiens, UniProt P22310)
- Sequence (P22310 29-534): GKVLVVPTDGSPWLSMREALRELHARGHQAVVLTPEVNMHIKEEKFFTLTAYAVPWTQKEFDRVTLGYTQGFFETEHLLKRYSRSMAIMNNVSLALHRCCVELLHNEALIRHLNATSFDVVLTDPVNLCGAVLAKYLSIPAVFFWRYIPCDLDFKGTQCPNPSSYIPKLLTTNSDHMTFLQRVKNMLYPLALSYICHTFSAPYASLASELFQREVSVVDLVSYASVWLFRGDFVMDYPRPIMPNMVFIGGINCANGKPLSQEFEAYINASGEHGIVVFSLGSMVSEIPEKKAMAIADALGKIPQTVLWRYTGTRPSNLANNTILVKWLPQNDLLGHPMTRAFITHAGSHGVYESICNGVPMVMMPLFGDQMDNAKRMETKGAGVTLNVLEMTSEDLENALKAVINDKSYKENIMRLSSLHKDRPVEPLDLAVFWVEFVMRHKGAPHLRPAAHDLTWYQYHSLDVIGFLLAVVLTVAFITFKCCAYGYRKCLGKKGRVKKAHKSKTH
- TEST_NAME: UGT1A4-catalyzed trifluoperazine
- CONDITION_INFO: recombinant human UGT1A4, probe trifluoperazine (TFP), 40 μM
# activity at 20 min, 50 μM listing for each entry below
Quick note: give the figure in %, leave out the unit.

Assign activity at 20 min, 50 μM to the following record: CCCCCCCCCCCCCCCC(=O)OC[C@H](COP(=O)([O-])OCC[N+](C)(C)C)OC(=O)CCCCCCCCCCCCC 63.8

Assign activity at 20 min, 50 μM to the following record: CCCCCCCC/C=C\CCCCCCCC(=O)O[C@H](COC(=O)CCCCCCCCCCCCCCC)COP(=O)([O-])OCC[N+](C)(C)C 51.8

----------
- TARGET_OR_SYSTEM: UGT2B7 (Homo sapiens, UniProt P16662)
- Sequence (P16662 24-529): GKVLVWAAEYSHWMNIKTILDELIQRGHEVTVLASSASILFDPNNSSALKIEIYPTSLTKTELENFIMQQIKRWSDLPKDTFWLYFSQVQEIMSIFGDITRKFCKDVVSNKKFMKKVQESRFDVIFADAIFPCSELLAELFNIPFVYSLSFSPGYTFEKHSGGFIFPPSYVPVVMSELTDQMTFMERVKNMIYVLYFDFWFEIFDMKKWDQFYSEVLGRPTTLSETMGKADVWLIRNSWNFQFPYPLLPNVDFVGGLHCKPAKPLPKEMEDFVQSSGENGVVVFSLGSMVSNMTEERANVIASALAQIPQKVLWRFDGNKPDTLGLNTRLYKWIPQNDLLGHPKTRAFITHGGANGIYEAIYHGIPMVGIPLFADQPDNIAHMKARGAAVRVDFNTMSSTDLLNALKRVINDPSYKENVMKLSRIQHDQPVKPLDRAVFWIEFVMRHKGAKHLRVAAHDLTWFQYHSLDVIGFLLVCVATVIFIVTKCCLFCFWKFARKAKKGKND
- TEST_NAME: UGT2B7 supersomes-catalyzed 4-MU glucuronidation inhibition
- CONDITION_INFO: 50 μM LPC components; recombinant human UGT; mean of triplicate
OBSERVED_PROPERTY: residual activity 2B7 (%)
Quick note: give the figure in %, leave out the unit.

Worked set:
CCCCCCCCCCCCCCC(=O)OC[C@@H](O)COP(=O)([O-])OCC[N+](C)(C)C; 43.9
CCCCCCCCCCC(=O)OC[C@@H](O)COP(=O)([O-])OCC[N+](C)(C)C; 78.0
CCCCCCCCCC(=O)OC[C@@H](O)COP(=O)([O-])OCC[N+](C)(C)C; 77.3

Assign residual activity 2B7 to the following record: CCCCCCCCCCCCC(=O)OC[C@@H](O)COP(=O)([O-])OCC[N+](C)(C)C 79.9

Assign residual activity 2B7 to the following record: CCCCCCCCCCCCCCCCCC(=O)OC[C@@H](O)COP(=O)([O-])OCC[N+](C)(C)C 39.3

Assign residual activity 2B7 to the following record: CCCCCCCCCCCC(=O)OC[C@@H](O)COP(=O)([O-])OCC[N+](C)(C)C 72.8

Assign residual activity 2B7 to the following record: CCCCCCCCC(=O)OC[C@@H](O)COP(=O)([O-])OCC[N+](C)(C)C 76.2

Assign residual activity 2B7 to the following record: CCCCCCC(=O)OCC(O)COP(=O)([O-])OCC[N+](C)(C)C (stereo not drawn) 73.8

Assign residual activity 2B7 to the following record: CCCCCCCC(=O)OCC(O)COP(=O)([O-])OCC[N+](C)(C)C (stereo not drawn) 70.1

Value source: paper PMC6631349
